Test system: Arabidopsis
Test: Ribo-seq and RNA-seq global translatome profiling (translational efficiency TE, mORF/uORF ribo-shift) upon elf18 treatment
Format: in vivo
Parameters: key: Up: ribo-shift up (i.e., increased mORF/uORF ratio); Down: ribo-shift down (i.e., decreased mORF/uORF ratio)
Settings: shift of mORF/uORF ratio, elf18 vs Mock; per uORF

>  <molecule>
AT5G61010.1_3: uORF of AT5G61010.1; peptide SEQ ID NO: 38 (nucleic acid, listed as DNA, chemistry not fully specified) DNA: ATGTCAACTGGATTAAGCTTAAGTAGTAATGGTTTTTACTATGTTCATGTGGGGATTTCTCTTCCTCTCTGTTTACTTCATTCCGAGATGACTTGA

>  <score (Ribo-shift)>
Down

$$$$
>  <molecule>
AT4G24750.1_1: uORF of AT4G24750.1; peptide SEQ ID NO: 26 (nucleic acid, listed as DNA, chemistry not fully specified) DNA: ATGAAGCCAAAACTATCCAATAACTCGAAATTGACTACTCTTTTCTTTTGTCTCTGTTGTTGA

>  <score (Ribo-shift)>
Down

$$$$
>  <molecule>
AT5G15950.1_1: uORF of AT5G15950.1; peptide SEQ ID NO: 35 (nucleic acid) DNA: ATGATGGAATCGAAAGCTGGTAATAAGAAGTCAAGCAGCAATAGTTCCTTATGTTACGAAGCACCCCTTGGTTACAGCATTGAAGACGTTCGTCCTTTCGGTGGAATCAAGAAATTCAAATCTTCTGTCTACTCCAACTGCGCTAAGAGGCCTTCCTGA

>  <score (Ribo-shift)>
Down

$$$$
